Tested on: A. fumigatus
Assay setup: in vitro
Endpoint label: Minimal Inhibitory Concentration MIC A. fumigatus

Give the measured Minimal Inhibitory Concentration MIC A. fumigatus for CCCCCOc1ccc(-c2ccc(-c3ccc(C(=O)N[C@H]4CCN(C(=O)C(N)CN)NC(=O)[C@@H]5[C@@H](O)[C@@H](C)CN5C(=O)[C@H](C(C)O)NC(=O)[C@H]([C@H](O)Cc5ccc(O)cc5)NC(=O)[C@@H]5C[C@@H](O)CN5C(=O)[C@H](C(C)O)NC4=O)cc3)cc2)cc1 (single isomer, unassigned) [E2-13 (isomer 2)] 1.25 µg/mL

Return Minimal Inhibitory Concentration MIC A. fumigatus for the following compound: CCCCCOc1ccc(-c2ccc(-c3ccc(C(=O)N[C@H]4CCN(CC)NC(=O)[C@@H]5[C@@H](O)[C@@H](C)CN5C(=O)[C@H](C(C)O)NC(=O)[C@H]([C@H](O)Cc5ccc(O)cc5)NC(=O)[C@@H]5C[C@@H](O)CN5C(=O)[C@H](C(C)O)NC4=O)cc3)cc2)cc1 (stereo partly shown) [E2-11(b)] 0.312 µg/mL

Tell me Minimal Inhibitory Concentration MIC A. fumigatus reported for CCCCCOc1ccc(-c2ccc(-c3ccc(C(=O)N[C@H]4CCN(C(=O)C(N)CN)NC(=O)[C@@H]5[C@@H](O)[C@@H](C)CN5C(=O)[C@H](C(C)O)NC(=O)[C@H]([C@H](O)Cc5ccc(O)cc5)NC(=O)[C@@H]5C[C@@H](O)CN5C(=O)[C@H](C(C)O)NC4=O)cc3)cc2)cc1 (single isomer, unassigned) [E2-13 (isomer 1)] 0.625 µg/mL

Read off the recorded Minimal Inhibitory Concentration MIC A. fumigatus for CCCCCOc1ccc(-c2ccc(-c3ccc(C(=O)N[C@H]4CCN(C(=O)CN)NC(=O)[C@@H]5[C@@H](O)[C@@H](C)CN5C(=O)[C@H](C(C)O)NC(=O)[C@H]([C@H](O)Cc5ccc(O)cc5)NC(=O)[C@@H]5C[C@@H](O)CN5C(=O)[C@H](C(C)O)NC4=O)cc3)cc2)cc1 (stereo partly shown) [Compound E2-12] 0.156 µg/mL
